B1: TPR 5TU (parent)
chain: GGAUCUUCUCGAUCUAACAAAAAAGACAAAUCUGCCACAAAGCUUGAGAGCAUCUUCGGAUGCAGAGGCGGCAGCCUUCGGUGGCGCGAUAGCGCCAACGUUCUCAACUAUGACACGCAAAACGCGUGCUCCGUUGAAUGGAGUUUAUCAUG

- Variants of: B1
- procedure details: polymerase ribozyme fitness, log enrichment relative to wild type (log ratio); higher = more active; in vitro selection for triplet polymerase activity
Variants at the floor of the assay were thinned out.
Answer each item with its documented polymerase ribozyme fitness (log ratio).
Give bare numbers.

In [3]: df
Out[3]:
   variant_descriptor                        reported_endpoint  obs_value
0      C54G U55A G58U  polymerase ribozyme fitness (log ratio)     0.0801

The following variants each have a reported value; give each one's polymerase ribozyme fitness (log ratio).
1. C85A A121U U127C
2. U56G G58A C63G U101G A120U
3. G92A C116U
4. U45G C93A C116U
5. A12G U144G
6. G50A G133C
7. U53A U61A A106U C129U

[-1.47, -2.56, -2.29, -2.88, 0.592, -3.28, -3.27]

The following variants each have a reported value; give each one's polymerase ribozyme fitness (log ratio).
1. C10U G84U
2. G46C C93U C96U
3. C85U A98G A113U U135C
4. A24U C35U C75U
5. C99G U146G
6. G84U U135A
7. A24U A60U G84U
8. A98G U127C

[-4.13, -2.86, -3.59, -2.19, -1.32, -2.85, -2.22, -3.01]

The following variants each have a reported value; give each one's polymerase ribozyme fitness (log ratio).
1. U55A U146A
2. C85U U102G
3. C69G G94A
4. C8U C95U
5. C93A U104C

-0.393
-3.32
-1.15
-2.24
-3.27
